molecular target: angiotensin II AT1 receptor; assay: Assay A: Angiotensin II binding activity (125I-AII displacement, rat uterine membrane preparation)
pIC50: −log10 of the molar value.
Is pIC50 at least 7? Then yes. If not, no.

querySmiles | classification
CCCCc1nc(CCCC2CCCCC2)n(Cc2ccc(-c3ccccc3-c3nnn[nH]3)cc2)n1 | no
CCCCc1nc(C(=O)NC)n(Cc2ccc(-c3ccccc3-c3nnn[nH]3)nc2)n1 | no
CCCCc1nc(C)n(Cc2ccc(-c3ccccc3C(=O)O)cc2)n1 | no
CCCCCn1cc(CCCC)n(Cc2ccc(-c3ccccc3-c3nnn[nH]3)nc2)c1=O | yes
CCCCc1cn(CC(C)(C)C)c(=O)n1Cc1ccc(-c2ccccc2-c2nnn[nH]2)nc1 | yes
CCCCc1cn(-c2c(Cl)cccc2Cl)c(=O)n1Cc1ccc(-c2ccccc2-c2nnn[nH]2)nc1 | yes
CCCCc1nc(Cc2ccc(-c3ccccc3-c3nnn[nH]3)cc2)nn1CCCC | no
CCCCc1cn(-c2c(C(C)C)cccc2C(C)C)c(=O)n1Cc1ccc(-c2ccccc2-c2nnn[nH]2)cc1 | no
CCCCn1nc(CCc2cccs2)nc1Cc1ccc(-c2ccccc2-c2nnn[nH]2)nc1 | yes
CCCCc1cn(CCc2cccs2)c(=O)n1Cc1ccc(-c2ccccc2-c2nnn[nH]2)nc1 | yes

Is pIC50 at least 7? Consider "CCCCc1cn(-c2c(CC)cccc2CC)c(=O)n1Cc1ccc(-c2ccccc2-c2nnn[nH]2)cc1"
yes

Would you mind doing "CCCCc1nn(CC(=O)OC(C)(C)C)c(=O)n1Cc1ccc(-c2ccccc2-c2nn[nH]n2)cc1" as well?
yes

Could you do the same for "CCCCc1nc(CC)nn1Cc1ccc(-c2ccccc2C(=O)O)cc1" , please?
no

Here is the next compound: "CCCCc1cn(-c2c(C)cccc2Cl)c(=O)n1Cc1ccc(-c2ccccc2-c2nnn[nH]2)cc1"
yes

Please answer likewise for "CCCCc1nc(C2CCCCC2)nn1Cc1ccc(-c2ccccc2-c2nnn[nH]2)cc1"
yes

Continue with "CCCCc1cn(C(C)(C)C)c(=O)n1Cc1ccc(-c2ccccc2-c2nnn[nH]2)nc1"
yes

Subsequent entry: "CCCCc1cn(CCC(C)(C)C)c(=O)n1Cc1ccc(-c2ccccc2-c2nnn[nH]2)nc1"
yes

Same again, this time with "CCCCc1nc(CCCNC(=O)OC(C)(C)C)n(Cc2ccc(-c3ccccc3-c3nnn[nH]3)cc2)n1"
no

Input "CCCCc1nc(Cc2ccc(-c3ccccc3C(=O)O)cc2)n(CCCC)n1"
no

* * *

molecular target: angiotensin II AT1 receptor; test: Assay A: Angiotensin II binding activity (125I-AII displacement, rat uterine membrane preparation)
Binary call on IC50 with cut-off 60 nM: strictly below means rule met, and equality or higher means rule not met.

Use these answered entries as a reference point.
querySmiles | assayedSystem | classification
CCCCc1nc(CC2CCCCC2)nn1Cc1ccc(-c2ccccc2-c2nnn[nH]2)cc1 | angiotensin II AT1 receptor | rule met
CCCCn1nc(C(=O)CCC)nc1Cc1ccc(-c2ccccc2-c2nnn[nH]2)nc1 | angiotensin II AT1 receptor | rule not met
CCCCc1nc(-c2ccccc2C)n(Cc2ccc(-c3ccccc3-c3nnn[nH]3)nc2)n1 | angiotensin II AT1 receptor | rule not met
CCCCc1cn(-c2c(C)cccc2C)c(=O)n1Cc1ccc(-c2ccccc2-c2nnn[nH]2)cc1 | angiotensin II AT1 receptor | rule met
CCCCc1nc(C)nn1Cc1ccc(-c2ccccc2-c2nnn[nH]2)cc1 | angiotensin II AT1 receptor | rule met

Dear reviewer, please state whether "CCCCc1nc(CC(C)(C)C)nn1Cc1ccc(-c2ccccc2-c2nnn[nH]2)nc1" has IC50 strictly beneath 60 nM.
rule met

Next record, please: "CCCCc1cn(-c2ccccc2OC)c(=O)n1Cc1ccc(-c2ccccc2-c2nnn[nH]2)nc1"
rule met

Lookup "CCCCc1nc(CN)n(Cc2ccc(-c3ccccc3-c3nnn[nH]3)cc2)n1"
rule not met
